Assignment: determine reported pIC50 for the given compounds.
MEASURED TARGET: TbTryR (recombinant T. b. brucei trypanothione reductase) (Trypanosoma brucei brucei, UniProt Q389T8)
Sequence (Q389T8 entry or part of it): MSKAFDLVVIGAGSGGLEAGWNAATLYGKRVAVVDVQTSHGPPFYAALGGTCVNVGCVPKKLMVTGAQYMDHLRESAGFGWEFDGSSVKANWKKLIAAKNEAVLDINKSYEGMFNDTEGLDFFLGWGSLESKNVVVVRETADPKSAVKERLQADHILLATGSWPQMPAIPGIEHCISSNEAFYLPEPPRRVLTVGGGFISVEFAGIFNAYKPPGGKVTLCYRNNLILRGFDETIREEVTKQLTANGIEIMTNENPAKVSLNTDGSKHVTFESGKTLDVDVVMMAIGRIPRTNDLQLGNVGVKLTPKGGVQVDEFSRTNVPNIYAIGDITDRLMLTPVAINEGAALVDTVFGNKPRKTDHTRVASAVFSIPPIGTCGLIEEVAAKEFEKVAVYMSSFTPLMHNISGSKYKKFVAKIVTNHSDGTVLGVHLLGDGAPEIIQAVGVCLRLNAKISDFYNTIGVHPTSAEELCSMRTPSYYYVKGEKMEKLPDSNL
ASSAY DETAILS: biochemical
Convention used: pIC50 is expressed as -log10 of the molar concentration.

q: State its pIC50: CC(C)(C)c1cc(CN(CCO)CCO)cc(C(C)(C)C)c1O [DM7a]
a: 4.72

q: Give recorded pIC50. O=c1c2ccccc2[se]n1-c1ccccc1 [Ebselen]
a: 6.74

q: Give pIC50 for CCN(CC)CCCC(C)Nc1c2ccc(Cl)cc2nc2ccc(OC)cc12 (stereo not shown) [Quinacrine]
a: 4.66

q: Give the measured pIC50 for CN(C)CCCC1(c2ccc(F)cc2)OCc2cc(C#N)ccc21 (stereo not shown) [Citalopram]
a: 4.08

q: Specify measured pIC50 for CN(C)CCC(=O)c1ccc(Cl)c(Cl)c1 [DM8a] .
a: 5.50

q: Let me know recorded pIC50 for CN(C)CCC(=O)c1ccc(S(C)(=O)=O)cc1 [DM5a] , thanks.
a: 5.17

q: Provide measured pIC50 value, entry: CN(C)CCC(=O)c1cccc([N+](=O)[O-])c1 [DM6a]
a: 5.49

Source of measurements: paper PMC2789240
